Biological target: T1, 4Ig-B7H3 (human, UniProt Q5ZPR3 27-461, limits assumed)
T1 construct: also called 4Ig-B73H3
T1 sequence (looked up): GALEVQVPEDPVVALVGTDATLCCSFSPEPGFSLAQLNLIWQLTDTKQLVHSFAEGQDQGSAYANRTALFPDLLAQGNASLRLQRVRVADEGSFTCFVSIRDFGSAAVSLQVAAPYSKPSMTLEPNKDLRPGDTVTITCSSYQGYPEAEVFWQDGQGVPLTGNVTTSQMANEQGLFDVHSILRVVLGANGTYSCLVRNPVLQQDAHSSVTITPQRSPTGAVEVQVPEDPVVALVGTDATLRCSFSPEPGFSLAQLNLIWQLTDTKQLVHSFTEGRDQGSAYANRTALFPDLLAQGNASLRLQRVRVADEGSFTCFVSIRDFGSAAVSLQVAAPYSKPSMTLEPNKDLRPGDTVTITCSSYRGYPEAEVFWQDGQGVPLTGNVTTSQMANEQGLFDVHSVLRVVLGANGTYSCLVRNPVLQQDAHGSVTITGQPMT
Experiment: SPR, IgG on 4Ig-B7-H3 without Fc fusion

{"Binder": "hu8H9 H3L3 IgG1 (antibody, V domains shown) VH: QVQLVQSGAEVVKPGASVKLSCKASGYTFTNYDINWVRQRPEQGLEWIGWIFPGDGSTQYNEKFKGKATLTTDTSTSTAYMELSSLRSEDTAVYFCARQTTATWFAYWGQGTLVTVSS VL: EIVMTQSPATLSVSPGERVSLSCRASQSISDYLHWYQQKSHESPRLLIKYASQSISGIPARFSGSGSGSEFTLTINSVEPEDVGVYYCQNGHSFPLTFGQGTKLELKR", "koff": "0.000677 s⁻¹"}
